Recorded pKd by entry
Molecular target: T1, rat serum albumin (rat)
T1 chain: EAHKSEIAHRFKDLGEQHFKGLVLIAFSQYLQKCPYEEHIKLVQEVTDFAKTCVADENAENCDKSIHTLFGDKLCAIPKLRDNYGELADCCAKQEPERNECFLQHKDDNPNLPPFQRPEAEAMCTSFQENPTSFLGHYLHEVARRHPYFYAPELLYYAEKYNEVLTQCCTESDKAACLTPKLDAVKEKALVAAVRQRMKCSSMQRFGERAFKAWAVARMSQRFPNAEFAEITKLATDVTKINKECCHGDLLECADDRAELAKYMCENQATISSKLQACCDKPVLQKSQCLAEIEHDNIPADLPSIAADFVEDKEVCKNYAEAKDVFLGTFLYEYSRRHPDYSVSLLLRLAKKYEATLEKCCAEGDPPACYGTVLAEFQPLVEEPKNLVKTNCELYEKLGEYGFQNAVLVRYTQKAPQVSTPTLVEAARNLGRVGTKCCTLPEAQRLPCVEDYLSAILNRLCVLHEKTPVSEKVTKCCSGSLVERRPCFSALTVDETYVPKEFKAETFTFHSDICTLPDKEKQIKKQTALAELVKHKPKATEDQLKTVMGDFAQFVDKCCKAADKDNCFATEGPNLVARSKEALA
Assay: SPR Biacore T200, fusion protein captured by anti-VHH antibody, albumin as analyte
Protocol: Coupling of an anti-VHH antibody (MonoRab™ Rabbit Anti-Camelid VHH Cocktail, Genescript, Cat No. A02014) to an S series CM5 sensor chip (GE, Cat No. 29-1049-88) was performed using an amino coupling kit (GE, Cat No. BR-1000-50). The antibody was diluted to 10 μg/mL with 10 mM sodium acetate (pH 4.5) (GE, Cat No. BR-1003-50). […]
Worth noting: pKd values are minus log10 of concentrations stated in mol/L.

binder="0052 (other, Single-chain fusion: anti-HSA VHH, linker, relaxin-2 B chain, linker, relaxin-2 A chain; also called fusion protein 0052) EVQLLESGGGLVQPGGSLRLSCAASGFTFLTSCMGWFRQAPGKEREGVSSIYTVGGSTFYTNSVKGRFTISRDNSKNTLYLQMNSLRAEDTAVYYCAAGSPARCRLRDPTTFDYWGQGTLVTVSSPGPAPGPAPGPAPGPAPGPAPGPAPGPAPGPASWMEEVIKLCGRELVRAQIAICGMSTWSGGGSGGSGGGQLYSALANKCCHVGCTKRSLARFC" number=6.84

Dear colleague, please send me the reported pKd for 0065 (other, Single-chain fusion: anti-HSA VHH, linker, relaxin-2 B chain, linker, relaxin-2 A chain; also called fusion protein 0065) EVQLLESGGGLVQPGGSLRLSCAASGFTFLTSCMGWFRQAPGKEREGVSSIYTVGGSTFYTNSVKGRFTISRDNSKNTLYLQMNSLRPEDTAVYYCAAGSPARCRLRDPTTFDYWGQGTLVTVSSGGGGQGGGGQGGGGQGGGGQGGGGQSWMEEVIKLCGRELVRAQIAICGMSTWSGGGSGGSGGGQLYSALANKCCHVGCTKRSLARFC when you can. 6.80

Dear colleague, please send me the reported pKd for 0051 (other, Single-chain fusion: anti-HSA VHH, linker, relaxin-2 B chain, linker, relaxin-2 A chain; also called fusion protein 0051; molecule 0051) EVQLLESGGGLVQPGGSLRLSCAASGFTFLTSCMGWFRQAPGKEREGVSSIYTVGGSTFYTNSVKGRFTISRDNSKNTLYLQMNSLRAEDTAVYYCAAGSPARCRLRDPTTFDYWGQGTLVTVSSGGGGQGGGGQGGGGQGGGGQGGGGQSWMEEVIKLCGRELVRAQIAICGMSTWSGGGSGGSGGGQLYSALANKCCHVGCTKRSLARFC when you can. 6.81
